assaySystem: UniProt:P00533
Sequence (P00533 whole entry): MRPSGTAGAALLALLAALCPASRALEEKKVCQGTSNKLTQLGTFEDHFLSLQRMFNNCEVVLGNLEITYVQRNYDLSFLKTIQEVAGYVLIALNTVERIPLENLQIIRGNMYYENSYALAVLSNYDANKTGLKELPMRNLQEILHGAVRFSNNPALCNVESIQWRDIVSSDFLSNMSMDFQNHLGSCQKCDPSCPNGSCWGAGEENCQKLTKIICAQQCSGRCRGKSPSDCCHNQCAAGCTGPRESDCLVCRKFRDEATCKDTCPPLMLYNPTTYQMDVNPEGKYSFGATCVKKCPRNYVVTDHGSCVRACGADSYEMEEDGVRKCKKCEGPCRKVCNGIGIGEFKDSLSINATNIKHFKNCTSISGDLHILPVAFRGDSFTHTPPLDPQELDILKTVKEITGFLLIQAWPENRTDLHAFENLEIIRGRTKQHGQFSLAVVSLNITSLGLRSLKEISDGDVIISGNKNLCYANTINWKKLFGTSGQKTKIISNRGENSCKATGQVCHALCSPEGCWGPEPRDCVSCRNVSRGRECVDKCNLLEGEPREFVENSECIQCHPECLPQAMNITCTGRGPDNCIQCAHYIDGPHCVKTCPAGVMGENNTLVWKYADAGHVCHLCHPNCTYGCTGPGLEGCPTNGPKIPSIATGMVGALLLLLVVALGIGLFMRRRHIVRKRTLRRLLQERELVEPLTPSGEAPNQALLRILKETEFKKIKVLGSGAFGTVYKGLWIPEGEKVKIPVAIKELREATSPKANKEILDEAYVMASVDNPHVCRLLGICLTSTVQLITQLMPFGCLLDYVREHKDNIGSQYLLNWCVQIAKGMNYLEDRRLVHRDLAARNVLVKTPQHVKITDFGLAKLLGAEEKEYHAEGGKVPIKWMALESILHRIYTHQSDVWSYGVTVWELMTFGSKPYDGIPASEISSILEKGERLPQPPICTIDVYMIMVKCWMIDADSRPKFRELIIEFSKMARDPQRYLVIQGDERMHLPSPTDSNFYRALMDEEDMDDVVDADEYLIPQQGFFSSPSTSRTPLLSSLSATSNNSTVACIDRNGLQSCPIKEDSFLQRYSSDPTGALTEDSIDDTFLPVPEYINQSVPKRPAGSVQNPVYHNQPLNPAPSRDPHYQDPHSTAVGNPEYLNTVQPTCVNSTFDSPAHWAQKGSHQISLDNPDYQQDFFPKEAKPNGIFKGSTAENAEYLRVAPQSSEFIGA
assayConditions: A549, at 1 µM
Catalogue of inhibition readings, one per entry.
measurementType: inhibition

smilesString | assaySystem | reported
CCOc1cc2ncnc(Nc3ccc(F)c(Cl)c3)c2cc1NC(=O)COC(=O)c1c(C)cccc1C | UniProt:P00533 | 97%
CCOc1cc2ncnc(Nc3ccc(F)c(Cl)c3)c2cc1NC(=O)COC(C)=O | UniProt:P00533 | 75%
CCOc1cc2ncnc(Nc3ccc(F)c(Cl)c3)c2cc1NC(=O)CO | UniProt:P00533 | 77%
CCOc1cc2ncnc(Nc3ccc(F)c(Cl)c3)c2cc1NC(=O)COC(=O)c1ccccc1 | UniProt:P00533 | 89%
